experimental.endpoint: melting point

COCCOc1c(C)cc(-c2nc3cc(OC)cc(OC)c3c(=O)[nH]2)cc1C	201 to 202 °C
CCCOc1cccc(-c2ccc3c(c2)C=C(C(=O)Nc2ccc(CN(C)C4CCOCC4)cc2)CCS3(=O)=O)c1	219 to 221 °C
O=C(Nc1ccc(Cl)cc1)C(CS)Cc1ccccc1 (centres undefined)	142 °C
O=C(NCCO)c1cnc(-c2ccccc2)s1	149 to 152 °C
O=C(c1cccnc1)N1CCC(c2nc(-c3cnc(-c4ccccc4)nc3)c[nH]2)CC1	234 °C
ClC(=NNc1ccc(Br)cc1)c1ccc(Cl)cc1	142 to 144 °C
Nc1ncnc2c1c(-c1ccc(Oc3ccc(F)cc3)cc1)cn2C1CCOC1 (centres undefined)	198 to 199 °C
Cc1ccc(-n2nc(Sc3ccc(Cl)cc3)c(C)c(C#N)c2=O)cc1	190 to 192 °C
Cc1ccc2c(n1)CC(c1ccccc1C)CC2=O (centres undefined)	76 to 77 °C
CCOC(=O)c1cnn(-c2ccc(Br)cc2)c1C#N	104 to 105 °C
CC(CO)COc1ccc(C#Cc2ccc(C(=O)O)cc2)cc1C12CC3CC(CC(C3)C1)C2 (centres undefined)	260 to 262 °C
CS(=O)(=O)NS(=O)(=O)c1cccc(NC(=O)NC2N=C(c3ccccc3F)c3ccccc3N(CC(=O)N3CC4CCC(CC4)C3)C2=O)c1 (racemic)	> 250 °C
FC(F)(F)CNc1ccc2c(c1)N1CCN=C1S2	212 °C
O=C(OCC1CC1)c1ncn2c1[C@@H]1CCN1C(=O)c1c(Br)cccc1-2	212 to 213 °C
Cc1nc2c(-c3cccc(N4CCN(C)CC4)c3)cnn2c(N)c1-c1ccc(F)cc1	204 to 206 °C
O=c1[nH]ncn1-c1ccc(-n2ncn(-c3ccc(OCC(F)(F)C(F)F)cc3)c2=O)cc1	297 to 298 °C
Cc1cc(NC(=O)C(=O)N2C(C)CCCC2C)cc(C)c1S(=O)(=O)C[N+](=O)[O-] (centres undefined)	192 to 193 °C
CCOC(=O)C1=C(C)NC(N=CN(C)C)=C(C(=O)OCC)C1c1ccccc1[N+](=O)[O-] (centres undefined)	126 °C
O=C1OCCC1N1CCCC1=O (centres undefined)	80 to 81 °C
COc1ccc(-c2nc(CCBr)nc3cc(OC)c(OC)cc23)cc1OC	166 to 167 °C
CCCCn1ccc(C(=O)c2cc(C(C)(C)C)c(O)c(C(C)(C)C)c2)c1	101 to 103 °C
Clc1ccc(CNc2nc(-c3cccc(Cl)n3)nc3ccccc23)cc1	187 to 190 °C
CCOC(=O)c1cnn2c(-c3cccc(C(F)(F)F)c3)ccnc12	97 to 99 °C
OCC=C[C@@H]1O[C@H]1C#CC#CC#Cc1ccccc1 (relative stereo)	65 to 66 °C
COC(=O)c1ccc(C(=O)N2CCN(c3ncccc3NC(C)C)CC2)cc1	116 to 118 °C
O=C1NC(=S)SC1=Cc1ccnc2ccccc12	325 to 328 °C
O=C(OCc1ccccc1)N1CCN(C(=O)C(Cc2ccc(O)cc2)NS(=O)(=O)c2cccc3cnccc23)CC1 (centres undefined)	137 to 141 °C
O=C(NCc1ccn(-c2cc3nc(C(=O)O)c(=O)[nH]c3cc2Cl)c1)Nc1cccc2ccccc12	196 to 198 °C
COc1cccc2c1C(=O)N(C)CC(=O)N2	208 to 210 °C
NC1CCc2ccccc2C1NC(=O)OCc1ccccc1 (centres undefined)	102 to 145 °C
CN1C(=O)[C@H](NC(=O)/C=C/c2ccc(I)cc2)N=C(c2ccccc2)c2ccccc21	137 to 140 °C
COc1ccc(Cl)cc1N1CCN(CCNc2nccc(C(=O)N3CCC(Nc4nc(=O)cc[nH]4)CC3)n2)CC1	114 to 117 °C
Cc1ccc(NC(=O)c2ccccc2SSc2ccccc2C(=O)Nc2ccc(C)c(C)c2)cc1C	224 to 227 °C
Nc1nc2c(s1)CCN(CC=Cc1ccccc1F)CC2	96 to 102 °C
CCCC1CCC(O)CC1 (centres undefined)	109 °C
COc1ccc(C(=O)c2cccc(Cc3ccc(=O)[nH]n3)c2Cl)cc1	192 to 193 °C
O[C@H]1CC[C@@H](Nc2ncc3ncnc(Nc4ccc(F)c(Cl)c4)c3n2)CC1	270 to 275 °C
CC(=O)SCCNC(=O)CCNC(=O)OCc1ccccc1	83 to 108 °C
COc1ccc2[nH]c(C(=O)c3ccccc3)cc2c1	159 to 161 °C
